Assay comment: cytotoxicity assay (MTT)
Assay type: cell-based
Condition notes: human, Huh-7/Lunet cells (cured HCV replicon cells), Lunet/HuH7 cells, 2 days of incubation, mean of duplicates
Give measured CC50 at 2 days for each item. Keep answers brief.

Query block: Need CC50 at 2 days of CCCOCCNc1nc(N)nc2c1cc(-c1ccc(F)cc1)c(=O)n2C , thanks.
Result block: ≥ 25 µM

Query block: Need CC50 at 2 days of CCCOCCNc1nc(Oc2ccccc2)nc2[nH]c(=O)c(-c3ccc(F)cc3)cc12 , thanks.
Result block: ≥ 25 µM

Query block: Need CC50 at 2 days of O=C1Nc2nc(Nc3ccccc3)[nH]c(=O)c2CC1c1ccccc1 (stereo not shown) , thanks.
Result block: ≥ 25 µM

Query block: Need CC50 at 2 days of O=C1Nc2nc(Nc3ccccc3)nc(On3nnc4ccccc43)c2CC1c1ccc(Cl)cc1Cl (stereo not shown) , thanks.
Result block: < 10 µM

Query block: Need CC50 at 2 days of Nc1nc(Nc2ccccc2)nc2[nH]c(=O)c(-c3c(Br)cccc3Br)cc12 , thanks.
Result block: ≥ 25 µM

Query block: Need CC50 at 2 days of Cn1c(=O)c(-c2c(F)cccc2C(F)(F)F)cc2c(N)nc(Nc3ccccc3)nc21 , thanks.
Result block: < 10 µM

Query block: Need CC50 at 2 days of Nc1nc(Nc2ccccc2)nc2c1cc(-c1c(Cl)cccc1Cl)c(=O)n2CCO , thanks.
Result block: ≥ 25 µM

Query block: Need CC50 at 2 days of CC(C)Cn1c(=O)c(-c2c(Cl)cccc2Cl)cc2c(N)nc(Nc3ccccc3)nc21 , thanks.
Result block: ≥ 25 µM

Query block: Need CC50 at 2 days of COCCn1c(=O)c(-c2c(Cl)cccc2Cl)cc2c(N)nc(Nc3ccccc3)nc21 , thanks.
Result block: ≥ 25 µM

Query block: Need CC50 at 2 days of O=c1[nH]c2nc(Nc3ccccc3)[nH]c(=O)c2cc1-c1ccccc1 , thanks.
Result block: ≥ 25 µM

Query block: Need CC50 at 2 days of Cn1c(=O)c(-c2c(Br)cccc2Br)cc2c(N)nc(Nc3ccccc3)nc21 , thanks.
Result block: < 10 µM

Query block: Need CC50 at 2 days of CCCCCNc1nc(N)nc2[nH]c(=O)c(-c3c(Cl)cccc3Cl)cc12 , thanks.
Result block: 10 to 25 µM

Query block: Need CC50 at 2 days of CCCCCNc1nc(N)nc2c1cc(-c1ccc(F)cc1)c(=O)n2C , thanks.
Result block: 10 to 25 µM

Query block: Need CC50 at 2 days of O=c1[nH]c2nc(Nc3ccccc3)[nH]c(=O)c2cc1-c1ccc(F)cc1 , thanks.
Result block: 10 to 25 µM

Query block: Need CC50 at 2 days of O=C1Nc2nc(NCc3ccccc3)[nH]c(=O)c2CC1c1c(Cl)cccc1Cl (stereo not shown) , thanks.
Result block: ≥ 25 µM

Query block: Need CC50 at 2 days of Nc1nc(Nc2ccccc2)nc2[nH]c(=O)c(-c3c(F)cccc3F)cc12 , thanks.
Result block: < 10 µM

Ref: patent EP2905024A1
